- Test system: NO production in LPS-induced BV-2 cells
- Experiment: Inhibition of NO production in LPS-induced BV-2 cells (Griess method)
- Type: cell-based, murine
- Condition description: LPS (1 μg/ml)-induced BV-2 cells, 24 h; read-out: IC50, inhibitory effect against NO production
Quantity measured: pIC50
Quick note: pIC50 means taking -log10 of the concentration in moles per liter.

Requested read-out pIC50, target or system NO production in LPS-induced BV-2 cells, entry C=C(C)C1C(O)CC(C)C12CCC(CO)C(O)C2 (centres unmarked)
5.12

* * *

Each entry below carries its reported CC50.
- Test system: BV-2 microglial cells
- Experiment: Cell viability / cytotoxicity, MTT method
- Format: cell-based, murine
- Condition description: BV-2 cells

In the examples that follow, each entry is paired with its recorded CC50.
C=C(C)C1C(O)CC(C)C12CCC(CO)C(O)C2 (stereo not drawn) [Compound 14, Bilaiaeacorenol N]; > 100 µM
C=C(C)C1C(O)CC(C)C12CC=C(C)C(O)C2 (stereo not drawn); > 100 µM

CC50 lookup needed for C=C(C)C1C(O)CC(C)C12CCC(CO)C(O)C2 (stereo not drawn) [Compound 16, Bilaiaeacorenol P] , thanks.
> 100 µM
